assayed target: T1, IL-2 receptor βγ complex on pan T cells (human, UniProt P14784 27-551; P31785 23-369)
T1 sequence (looked up) 1: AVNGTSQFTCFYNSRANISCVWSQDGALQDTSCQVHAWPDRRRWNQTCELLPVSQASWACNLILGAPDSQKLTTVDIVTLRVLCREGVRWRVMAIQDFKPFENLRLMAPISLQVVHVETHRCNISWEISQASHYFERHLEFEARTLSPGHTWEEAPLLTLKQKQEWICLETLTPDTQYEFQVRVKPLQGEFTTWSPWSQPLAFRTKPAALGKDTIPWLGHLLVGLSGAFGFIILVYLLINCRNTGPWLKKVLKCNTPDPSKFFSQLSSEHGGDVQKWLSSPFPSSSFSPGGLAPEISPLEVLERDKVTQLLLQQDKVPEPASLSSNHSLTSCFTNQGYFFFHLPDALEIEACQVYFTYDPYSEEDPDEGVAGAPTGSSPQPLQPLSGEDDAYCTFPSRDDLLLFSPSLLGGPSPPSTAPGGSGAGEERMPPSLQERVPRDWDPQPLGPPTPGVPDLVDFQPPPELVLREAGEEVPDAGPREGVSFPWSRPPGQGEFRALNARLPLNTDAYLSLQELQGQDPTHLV
T1 sequence (looked up) 2: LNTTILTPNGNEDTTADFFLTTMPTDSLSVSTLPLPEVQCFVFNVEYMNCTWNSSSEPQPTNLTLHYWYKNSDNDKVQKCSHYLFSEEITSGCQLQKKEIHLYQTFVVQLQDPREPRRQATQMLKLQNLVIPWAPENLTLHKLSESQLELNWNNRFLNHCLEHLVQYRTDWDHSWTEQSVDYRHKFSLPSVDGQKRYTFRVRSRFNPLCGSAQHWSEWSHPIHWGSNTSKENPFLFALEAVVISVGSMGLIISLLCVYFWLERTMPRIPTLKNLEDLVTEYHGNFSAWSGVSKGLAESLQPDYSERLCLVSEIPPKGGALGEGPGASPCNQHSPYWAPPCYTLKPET
protocol summary: cell-based or functional assay
Primed or numbered codes have the meaning given here. [ ]: non-standard residue; d: D form. Ygp″ = O-(PEG8-amino)-tyrosine (O-(8x polyethylene glycol-amino)-tyrosine); Yn3″ = O-(PEG9-azido)-tyrosine (O-(9x polyethylene glycol-azido)-tyrosine); hSer = N[C@@H](CCO)C(=O)O; Nle = CCCC[C@H](N)C(=O)O
readout label: Average EC50, pSTAT5 assay in pan T cells, MMP2 cleaved molecule
Kindly report the value followed by its unit.

Average EC50, pSTAT5 assay in pan T cells, MMP2 cleaved molecule in this record for CMP-127, MMP2 cleaved (ligand, ends and bridges not checked; also: Lys23 side chain attached via PEG9 to cleavable peptide, MMP2-cleaved, remnant stays attached, cut site not given here) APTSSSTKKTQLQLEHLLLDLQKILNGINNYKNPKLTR[Nle]L[hSer][Yn3″]KF[Ygp″][Nle]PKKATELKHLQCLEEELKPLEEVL[hSer]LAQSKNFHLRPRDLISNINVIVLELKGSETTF[hSer]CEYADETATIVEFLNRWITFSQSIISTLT : 2.43 nM
